- EXPERIMENT: Quantitative High-Throughput drug screen in 47 multiple myeloma cell lines against the NCATS MIPE library collection: Karpas25_ECACC cell viability assay (AID 1918968; note: nearly all actives have a fitted effect of over 35% in size; note: potency is the fitted concentration of half-maximal effect)
- CONDITION_SET: Karpas25 myeloma viability, CellTiter-Glo ATP, 48 h; series mostly up to 45.8 µM
Inconclusive results are not listed. The source made the active and inactive calls. Calls come from the whole dose curve; as a rule, active = well fitted cell-killing curve with a large enough effect; inconclusive = small, poorly fitted or top-dose-only effect, or effect the other way; inactive = no such curve, though single readings can be large or run the other way.
READOUT_NAME: Potency

Sample answers from the record:
COMPOUND: Cc1ccc(S(=O)(=O)Nc2cc(Cl)ccc2C(=O)Nc2nc(-c3ccccc3)cs2)cc1
EXPERIMENTAL_VALUE: 5.26 µM (active)
--
COMPOUND: COC(=O)[C@]12CCC(C)(C)C[C@@H]1[C@@H]1C(=O)C=C3[C@@]4(C)C=C(C#N)C(=O)C(C)(C)[C@@H]4CC[C@@]3(C)[C@]1(C)CC2
EXPERIMENTAL_VALUE: 0.209 µM (active)
--
COMPOUND: Nc1ccc(C(=O)c2cc3c(ccc4ccccc43)[nH]2)cc1
EXPERIMENTAL_VALUE: 3.72 µM (active)
--
COMPOUND: Clc1cccc(-c2nnnn2Cc2cccnc2)c1Cl
EXPERIMENTAL_VALUE: 16.6 µM (active)
--
COMPOUND: Cc1cc(Nc2cc(N3CCN(C)CC3)nc(Sc3ccc(NC(=O)C4CC4)cc3)n2)n[nH]1
EXPERIMENTAL_VALUE: 18.7 µM (active)

Tell me the measured Potency of COc1cc(C(=O)NS(=O)(=O)c2ccccc2C)ccc1Cc1cn(C)c2ccc(NC(=O)OC3CCCC3)cc12 , please.
8.33 µM (active)

Could you share which Potency value was measured for Nc1ccc(S(=O)(=O)Nc2ncccn2)cc1 ?
inactive

Quick check: Potency of C[C@@H]1CN(CC(=O)Nc2ccc3c(c2)Cc2cccc(-c4cc(=O)cc(N5CCOCC5)o4)c2S3)C[C@H](C)O1 ?
4.18 µM (active)

Return reported Potency; argument: C[C@H]1C[C@@H]2[C@@H]([C@@H](O)C[C@@]3(C)[C@H]2CC[C@]3(O)C(=O)CO)[C@@]2(C)C=CC(=O)C=C12
0.105 µM (active)

Can you look up the measured Potency of O=C(NC1CCNCC1)c1[nH]ncc1NC(=O)c1c(Cl)cccc1Cl for me?
0.372 µM (active)

Query: Potency; subject: CN1c2cc(O)c(N=NC(N)=O)cc2CC1S(=O)(=O)O (centres undefined)
inactive

# input compound: C[C@@H](Oc1cc(-c2cnn(C3CCNCC3)c2)cnc1N)c1c(Cl)ccc(F)c1Cl ; wanted: its Potency
2.35 µM (active)

Recorded Potency for CC(C)c1ccccc1Cc1cc(C(=O)Nc2ccc(S(=O)(=O)c3ccccc3C(C)(C)C)cc2)c(O)c(O)c1O , please?
3.72 µM (active)

Any idea what its Potency is? The compound is N#CCNC(=O)c1ccc(-c2ccnc(Nc3ccc(N4CCOCC4)cc3)n2)cc1
9.35 µM (active)

Data request, read-out Potency, for O=c1[nH]nc(Sc2ncc([N+](=O)[O-])s2)n1-c1ccc2c(c1)OCCO2
1.32 µM (active)

Give the measured Potency of O=c1c2ccccc2nc2n1CCc1c-2[nH]c2ccccc12 .
inactive

Give its Potency value. Item: Cc1ccc(CN2CCNCC2)cc1NC(=O)CNc1ccc(F)c(F)c1
5.9 µM (active)

GET /values?readout=Potency&item= c1nc2nc(Nc3ccc(N4CCOCC4)cc3)nc(NC3CCCCC3)c2[nH]1
5.26 µM (active)

For the compound CC(C)c1cnn2c(NCc3ccccc3)cc(N[C@@H](CO)[C@H](O)CO)nc12 , what Potency is on record?
0.235 µM (active)
